- System Name: T1, chemokine receptor 1 (CCR1) (UniProt P56482 1-355)
- T1 chain: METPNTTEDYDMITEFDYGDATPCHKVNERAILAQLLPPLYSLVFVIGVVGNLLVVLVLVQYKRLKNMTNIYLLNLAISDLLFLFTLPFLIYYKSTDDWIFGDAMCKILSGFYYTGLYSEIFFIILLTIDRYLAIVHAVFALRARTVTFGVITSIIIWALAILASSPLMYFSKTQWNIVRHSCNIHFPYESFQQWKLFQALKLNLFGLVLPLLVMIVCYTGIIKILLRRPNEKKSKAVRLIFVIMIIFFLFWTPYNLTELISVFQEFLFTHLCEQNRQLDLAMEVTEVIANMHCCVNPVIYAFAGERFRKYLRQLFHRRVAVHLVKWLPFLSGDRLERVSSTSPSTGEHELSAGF
- Protocol Notes: competition binding
*: point of attachment. Nonanoyl = CCCCCCCCC(=O)*

[
  {
    "Binder": "PHC-1 (HCC-1[9-74]) (ligand) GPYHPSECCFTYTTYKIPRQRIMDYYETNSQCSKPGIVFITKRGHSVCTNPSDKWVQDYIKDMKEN",
    "Unit Annotation": "nM",
    "IC50": 0.104
  },
  {
    "Binder": "NNY-HCC-1[10-74] (ligand, ends and bridges not checked) Nonanoyl-PYHPSECCFTYTTYKIPRQRIMDYYETNSQCSKPGIVFITKRGHSVCTNPSDKWVQDYIKDMKEN",
    "Unit Annotation": "nM",
    "IC50": 0.0843
  },
  {
    "Binder": "HCC-1[8-74] (ligand) RGPYHPSECCFTYTTYKIPRQRIMDYYETNSQCSKPGIVFITKRGHSVCTNPSDKWVQDYIKDMKEN",
    "Unit Annotation": "nM",
    "IC50": 2.42
  },
  {
    "Binder": "HCC-1[7-74] (ligand) SRGPYHPSECCFTYTTYKIPRQRIMDYYETNSQCSKPGIVFITKRGHSVCTNPSDKWVQDYIKDMKEN",
    "Unit Annotation": "nM",
    "IC50": 4.36
  },
  {
    "Binder": "HCC-1, residues 6-74 (ligand) SSRGPYHPSECCFTYTTYKIPRQRIMDYYETNSQCSKPGIVFITKRGHSVCTNPSDKWVQDYIKDMKEN",
    "Unit Annotation": "nM",
    "IC50": 6.52
  },
  {
    "Binder": "HCC-1[12-74] (protein) HPSECCFTYTTYKIPRQRIMDYYETNSQCSKPGIVFITKRGHSVCTNPSDKWVQDYIKDMKEN",
    "Unit Annotation": "nM",
    "IC50": 50.1
  }
]
